src = the RNAGym collection of RNA variant scans (doi:10.1021/acssynbio.7b00057)

B1: Pistol ribozyme (parent)
chain: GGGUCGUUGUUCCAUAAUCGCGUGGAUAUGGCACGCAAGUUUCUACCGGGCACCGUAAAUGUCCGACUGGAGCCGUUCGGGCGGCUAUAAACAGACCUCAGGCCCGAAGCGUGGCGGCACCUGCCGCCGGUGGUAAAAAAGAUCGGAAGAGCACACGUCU

variants of: B1; assay: aptazyme ON/OFF ratio, guanine; higher = stronger switching; co-transcriptional cleavage with and without guanine
reported endpoint: aptazyme ON/OFF ratio
Write the number on its own, no unit after it.

• U7A U8C U10A U11C C12A C13A = 1.07
• U7C U10C U11C C12U C13U = 1.33
• U7A U8G U10C U11A C13G = 1.21

Dear colleague, I am looking for the recorded aptazyme ON/OFF ratio of the following variant: U7A U8G G9A C12A C13A
1.41

What value of aptazyme ON/OFF ratio has been recorded for this entry: U7G U8A G9A U10G C12G
1.09

Give its aptazyme ON/OFF ratio value. Item: U7A U8C U10A U11A C13U
1.12

Need aptazyme ON/OFF ratio of U8G G9A U10G U11C C13A , thanks.
1.06

# input variant: U11G C12U C13G ; wanted: its aptazyme ON/OFF ratio
1.04

Name the recorded aptazyme ON/OFF ratio for U8C G9C U10A U11C C12G C13A .
1.23

Give the measured aptazyme ON/OFF ratio of G9A U10C U11C C12G C13A .
1.16

Which measured aptazyme ON/OFF ratio value corresponds to U7C U8G G9A U10G U11G C13U ?
1.19
